Every entry's value here was drawn from PubChem BioAssay (NCI).

# Test system: NCI-H460 lung
# assay: NCI tumour cell line growth inhibition, 48 h
Here, each record is paired with measured TGI data.

[[record]]
molecule = "CC(C)(C)N1C(=O)c2ccccc2C1(O)C(F)(F)F (configuration not stated)"
reported = "> 100 µM"

[[record]]
molecule = "Cc1cc(N)ccc1N=Nc1ccc(S(=O)(=O)CCOS(=O)(=O)O)cc1"
reported = "12.2 µM"

[[record]]
molecule = "CS/C(C#N)=C(\\C#N)SC"
reported = "81.4 µM"

[[record]]
molecule = "Cc1cccc(NC(=S)Nc2ccc([N+](=O)[O-])cc2)n1"
reported = "> 100 µM"


Next item in the queue.
(Q) Query: TGI; subject: CC(N)C(=O)OCN1C(=O)C2C3C=CC(C2C1=O)C1C2C(=O)N(COC(=O)C(C)N)C(=O)C2C31 (configuration not stated)
(A) 34.3 µM

* * *

Measured TGI values are reported for all entries that follow.
# System: A498 renal
# assay: NCI tumour cell line growth inhibition, 48 h

(Q) Can you look up the measured TGI of `O=c1c(-c2c(-c3ccccc3)oc3ccc(Cl)cc3c2=O)c(-c2ccccc2)oc2ccc(Cl)cc12` for me?
(A) > 100 µM

(Q) Record: `CCOC(=O)[C@@H]1OC(c2ccccc2)O[C@H]1C(=O)OCC`
(A) > 100 µM

(Q) Cool, now `Cc1cccc(O)c1-c1nnc(CCCCCCCCc2nnc(-c3c(C)cccc3O)n2N)n1N`
(A) > 100 µM

* * *

# System: MALME-3M melanoma
# assay: NCI tumour cell line growth inhibition, 48 h
reported_property: TGI

Example entries and their recorded answers appear below.
[[record]]
smi = "Nc1ccc(Oc2ccc(C3(c4ccc(Oc5ccc(N)cc5)cc4)C4CC5C6CC7CC5C3C(C7)C6C4)cc2)cc1"
reported_property = "TGI"
reported = "> 100 µM"

[[record]]
smi = "CC1=[N+]([O-])C(C)(C)N(N=O)C1(C)C"
reported_property = "TGI"
reported = "> 10 µM"


(Q) Record request: TGI value, item `Cc1[nH]n(C2=NCCN2)c(=O)c1C`
(A) > 100 µM

* * *

# System: NCI-H460 lung
# assay: NCI tumour cell line growth inhibition, 48 h
reported_property: TGI

(Q) # get_value(readout= TGI, system= NCI-H460 lung) for C=CC(CBr)CCC(Br)C(C)(C)Br (configuration not stated)
(A) > 10 µM

(Q) Would you kindly repeat that for `O=C(CSc1nnc(Cc2ccccc2)o1)Nc1cccc(Cl)c1` ?
(A) > 100 µM

(Q) // same read-out, input: O=C1OC2C(O)COC2(O)C1(O)C(C[N+](=O)[O-])c1ccc(Cl)cc1 (configuration not stated)
(A) 34.7 µM

(Q) Please answer likewise for `Cc1nn2c(=O)c([N+](=O)[O-])c(/C=C/c3ccco3)nc2s1`
(A) > 100 µM

(Q) One more compound: `CCSC(SCC)c1cc2c(cc1Br)OCO2`
(A) 49.4 µM

(Q) Next compound: `COc1ccc2oc(=Nc3ccccc3)c(C(N)=O)cc2c1`
(A) > 100 µM

(Q) For `CC1=C(C)CC(C#N)(C#N)C(C#N)(C#N)C1` then?
(A) > 10 µM

(Q) Would you mind doing CN1C(=O)CN2C(Cl)(Cl)C2(c2ccccc2F)c2cc([N+](=O)[O-])ccc21 (configuration not stated) as well?
(A) > 100 µM

(Q) Can you check `CCn1ncc2c1nc(-c1ccccc1)c[n+]2[O-]` next?
(A) > 100 µM

(Q) Consider next the compound `CC1=C(C(=O)Nc2ccccc2C)C(c2ccc(C3C(C(=O)Nc4ccccc4C)=C(C)NC(C)=C3C(=O)Nc3ccccc3C)cc2)C(C(=O)Nc2ccccc2C)=C(C)N1` in the same way.
(A) 24.9 µM

(Q) Quick one: `Cc1ncc(C(=O)Nc2ccc(CN3CCN(C)CC3)c(C(F)(F)F)c2)cc1C#Cc1cnc(N)c2cnccc12`
(A) 1.54 µM

(Q) Then `O=c1c(-c2ccccc2)c2oc(c1-c1ccccc1)CS(=O)(=O)CCC2` ?
(A) > 100 µM

* * *

# System: NCI-H460 lung
# assay: NCI tumour cell line growth inhibition, 48 h
Listed below: TGI values for each entry.

[[record]]
compound = "COC(=O)[C@H]1C(=O)[C@@]2(C)[C@H]([C@H](OC(=O)c3ccccc3)[C@]3(O)C[C@H](OC(=O)[C@H](O)[C@@H](NC(=O)c4ccc(F)cc4)c4ccccc4)C(C)=C1C3(C)C)[C@]1(OC(C)=O)CO[C@@H]1C[C@@H]2O"
system_tested = "NCI-H460 lung"
reported = "3.64 µM"

[[record]]
compound = "Cc1[nH]n(C2=NCCN2)c(=O)c1C"
system_tested = "NCI-H460 lung"
reported = "> 100 µM"

[[record]]
compound = "CCNCCC1(CC)C(=O)NC(=O)NC1=O"
system_tested = "NCI-H460 lung"
reported = "> 100 µM"


(Q) What value of measured TGI is listed for COc1cc(C2SCC(=O)N2Cc2ccccc2)cc(OC)c1OC (stereo not given) ?
(A) > 100 µM

(Q) Queued: `COc1cc(OC)c2ssc3c(OC)cc(OC)c4ssc1c2-c43`
(A) > 100 µM
